A short record of Ki observed with UniProt:P28222 follows.
Sequence (P28222 whole entry): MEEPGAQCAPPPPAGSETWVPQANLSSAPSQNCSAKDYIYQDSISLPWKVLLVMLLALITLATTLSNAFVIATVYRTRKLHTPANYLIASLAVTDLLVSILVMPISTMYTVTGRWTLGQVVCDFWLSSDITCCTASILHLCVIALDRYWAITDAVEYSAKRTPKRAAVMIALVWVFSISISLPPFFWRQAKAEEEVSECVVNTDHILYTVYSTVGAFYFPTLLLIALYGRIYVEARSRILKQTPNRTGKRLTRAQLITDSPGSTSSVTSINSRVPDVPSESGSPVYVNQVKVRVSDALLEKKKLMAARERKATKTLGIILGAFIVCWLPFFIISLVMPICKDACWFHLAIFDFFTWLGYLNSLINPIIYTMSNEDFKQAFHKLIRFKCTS

*Q* Hello, I am looking for reported Ki with UniProt:P28222 for `O=C(Nc1ccc2[nH]cc(C3CCN(CCCCCCCN4CCC(c5c[nH]c6ccc(NC(=O)c7ccc(F)cc7)cc56)CC4)CC3)c2c1)c1ccc(F)cc1` . Could you help?
*A* 79 nM

***
*Q* Could you share what Ki was measured for `CN(C)CCCN1CCC(c2c[nH]c3ccc(NC(=O)c4ccc(F)cc4)cc23)CC1` , tested on UniProt:P28222?
*A* > 1000 nM

*Q* Input `O=C(Nc1ccc2[nH]cc(C3CCN(CCOCCOCCN4CCC(c5c[nH]c6ccc(NC(=O)c7ccc(F)cc7)cc56)CC4)CC3)c2c1)c1ccc(F)cc1`
*A* 18 nM

*Q* Moving on to `O=C(O)CCCCCCCCCN1CCC(c2c[nH]c3ccc(NC(=O)c4ccc(F)cc4)cc23)CC1`
*A* > 1000 nM

*Q* Ok, now NC(=O)C(CN1CCC(c2c[nH]c3ccc(NC(=O)c4ccc(F)cc4)cc23)CC1)N1CCC(c2c[nH]c3ccc(NC(=O)c4ccc(F)cc4)cc23)CC1 (configuration not stated)
*A* > 1000 nM

*Q* Please give the result for `CN1CCC(c2c[nH]c3ccc(NC(=O)CCCCCCCCC(=O)Nc4ccc5[nH]cc(C6CCN(C)CC6)c5c4)cc23)CC1` too.
*A* 0.79 nM

*Q* Param item: `O=C(Nc1ccc2[nH]cc(C3CCN(CCCCCCCCCCCCN4CCC(c5c[nH]c6ccc(NC(=O)c7ccc(F)cc7)cc56)CC4)CC3)c2c1)c1ccc(F)cc1`
*A* > 10000 nM

* * *

Target: D(2) dopamine receptor (Homo sapiens, UniProt P14416)
Sequence (P14416 whole entry): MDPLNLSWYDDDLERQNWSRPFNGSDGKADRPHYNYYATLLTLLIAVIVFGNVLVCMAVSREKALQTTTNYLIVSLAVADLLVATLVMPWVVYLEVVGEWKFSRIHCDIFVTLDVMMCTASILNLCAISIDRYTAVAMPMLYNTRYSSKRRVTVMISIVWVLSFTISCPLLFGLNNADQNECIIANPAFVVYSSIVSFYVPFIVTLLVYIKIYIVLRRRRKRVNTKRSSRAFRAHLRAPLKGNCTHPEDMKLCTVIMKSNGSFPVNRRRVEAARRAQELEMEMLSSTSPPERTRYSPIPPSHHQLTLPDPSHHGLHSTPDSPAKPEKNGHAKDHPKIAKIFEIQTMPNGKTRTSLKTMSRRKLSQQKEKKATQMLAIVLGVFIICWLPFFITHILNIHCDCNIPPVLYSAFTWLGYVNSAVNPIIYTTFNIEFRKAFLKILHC
Test: Binding affinity to human dopamine D2 receptor
EXPERIMENTAL_READOUT: IC50 (nM)
Value expressed in nM; do not type the unit.

*Q* Tell me the measured IC50 of `O=C(Nc1ccc2[nH]cc(C3CCN(CCCCCCCN4CCC(c5c[nH]c6ccc(NC(=O)c7ccc(F)cc7)cc56)CC4)CC3)c2c1)c1ccc(F)cc1` , please.
*A* 700

* * *

For UniProt P28221, measured pKi is reported for the entries below.
Sequence (P28221 whole entry): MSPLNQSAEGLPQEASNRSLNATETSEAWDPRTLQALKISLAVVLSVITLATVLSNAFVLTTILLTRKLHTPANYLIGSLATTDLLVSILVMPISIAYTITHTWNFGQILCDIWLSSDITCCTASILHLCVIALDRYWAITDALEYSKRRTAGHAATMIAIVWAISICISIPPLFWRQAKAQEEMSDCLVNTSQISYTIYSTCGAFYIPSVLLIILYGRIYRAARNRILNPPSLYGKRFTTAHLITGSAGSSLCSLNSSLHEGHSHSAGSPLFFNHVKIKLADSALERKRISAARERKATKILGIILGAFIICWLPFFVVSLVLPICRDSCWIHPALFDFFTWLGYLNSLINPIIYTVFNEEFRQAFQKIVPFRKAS
// scale note: pKi = -log10(conc_M); give the bare number

Below, each entry is followed by its recorded pKi result.
*Q* Give pKi (UniProt P28221) of the following compound: `CN1CCC(c2c[nH]c3ccc(NC(=O)CCCCCCCCC(=O)Nc4ccc5[nH]cc(C6CCN(C)CC6)c5c4)cc23)CC1`
*A* 9.02

*Q* Let us now turn to `O=C(Nc1ccc2[nH]cc(C3CCN(CCCCCCN4CCC(c5c[nH]c6ccc(NC(=O)c7ccc(F)cc7)cc56)CC4)CC3)c2c1)c1ccc(F)cc1`
*A* 9.22

New cases:
*Q* Tell me reported pKi for `CN1CCC(c2c[nH]c3ccc(N)cc23)CC1` , tested with UniProt P28221.
*A* 7.40

*Q* Same for `CN1CCC(c2c[nH]c3ccc(NC(=O)CCCC(=O)Nc4ccc5[nH]cc(C6CCN(C)CC6)c5c4)cc23)CC1`
*A* 9.02

*Q* Please give the result for `CN1CCC(c2c[nH]c3ccc(NC(=O)CCCCCCCCCC(=O)Nc4ccc5[nH]cc(C6CCN(C)CC6)c5c4)cc23)CC1` too.
*A* 9.05
